Hey, just so you know, these numbers are from ChEMBL document CHEMBL1134615.

molecular target: Neutrophil collagenase (Homo sapiens); assay: Inhibitory activity against matrix metalloprotease-8
Sequence (P22894 whole entry): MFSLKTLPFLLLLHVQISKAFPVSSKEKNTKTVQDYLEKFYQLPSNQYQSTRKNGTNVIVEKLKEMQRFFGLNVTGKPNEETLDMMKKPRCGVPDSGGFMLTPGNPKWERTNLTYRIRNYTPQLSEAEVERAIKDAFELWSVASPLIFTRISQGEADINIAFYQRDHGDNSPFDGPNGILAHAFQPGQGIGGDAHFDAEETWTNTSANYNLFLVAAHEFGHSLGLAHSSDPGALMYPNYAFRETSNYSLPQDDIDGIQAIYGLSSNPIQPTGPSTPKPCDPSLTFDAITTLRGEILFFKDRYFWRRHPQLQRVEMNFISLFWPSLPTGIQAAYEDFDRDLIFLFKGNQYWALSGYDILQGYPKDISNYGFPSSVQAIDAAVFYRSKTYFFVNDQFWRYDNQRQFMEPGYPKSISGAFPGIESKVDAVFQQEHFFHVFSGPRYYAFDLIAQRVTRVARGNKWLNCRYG
log10(Ki) values for the molecules below.
OUTCOME MEASURE: log10(Ki) (log10 of the value in nM)

| LINE NOTATION | log10(Ki) |
| --- | --- |
| Cc1ccc(C2=NN=C(NC(=O)[C@@H](C)NS(=O)(=O)c3ccccc3)SC2)cc1 | 2.34 |
| C[C@H](NS(=O)(=O)Cc1ccccc1)C(=O)NC1=NN=C(c2ccc(Cl)cc2)CS1 | 2.30 |
| C[C@H](NS(=O)(=O)c1ccccc1)C(=O)NC1=NN=C(c2ccc(Br)cc2)CS1 | 2.04 |
| COc1ccc(C2=NN=C(NC(=O)[C@H](C)NS(=O)(=O)c3ccccc3)SC2)cc1 | 2.26 |
| CC(C)[C@@H](NS(=O)(=O)c1ccccc1)C(=O)NC1=NN=C(c2ccc(Cl)cc2)CS1 | 3.64 |

* * *

target: Interstitial collagenase (Homo sapiens, UniProt P03956)
Sequence (P03956 whole entry): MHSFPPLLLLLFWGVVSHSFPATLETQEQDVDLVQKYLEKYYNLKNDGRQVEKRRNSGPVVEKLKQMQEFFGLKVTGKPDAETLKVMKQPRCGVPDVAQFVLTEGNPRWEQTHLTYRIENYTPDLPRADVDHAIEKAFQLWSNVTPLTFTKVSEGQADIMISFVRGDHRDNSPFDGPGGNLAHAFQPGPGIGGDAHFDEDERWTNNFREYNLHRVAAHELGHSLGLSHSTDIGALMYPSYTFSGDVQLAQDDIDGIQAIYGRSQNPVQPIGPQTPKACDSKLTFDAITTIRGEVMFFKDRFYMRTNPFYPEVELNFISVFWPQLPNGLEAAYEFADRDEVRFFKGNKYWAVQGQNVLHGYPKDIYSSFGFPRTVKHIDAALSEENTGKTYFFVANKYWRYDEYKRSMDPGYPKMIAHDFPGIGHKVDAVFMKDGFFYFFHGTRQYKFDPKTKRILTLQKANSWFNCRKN
pKi: −log10 of the molar value.

| LINE NOTATION | EXPERIMENTAL TARGET | pKi |
| --- | --- | --- |
| Cc1ccc(C2=NN=C(NC(=O)[C@@H](C)NS(=O)(=O)c3ccccc3)SC2)cc1 | Interstitial collagenase (Homo sapiens, UniProt P03956) | 6.34 |
| C[C@H](NS(=O)(=O)c1ccccc1)C(=O)NC1=NN=C(c2ccc(C(F)(F)F)cc2)CS1 | Interstitial collagenase (Homo sapiens, UniProt P03956) | 6.37 |
| C[C@H](NS(=O)(=O)c1ccccc1)C(=O)NC1=NN=C(c2ccc(F)cc2)CS1 | Interstitial collagenase (Homo sapiens, UniProt P03956) | 6.36 |
| C[C@@H](NS(=O)(=O)c1ccccc1)C(=O)NC1=NN=C(c2ccc(C#N)cc2)CS1 | Interstitial collagenase (Homo sapiens, UniProt P03956) | 6.40 |
| CC(C)(NS(=O)(=O)c1ccccc1)C(=O)NC1=NN=C(c2ccc(Cl)cc2)CS1 | Interstitial collagenase (Homo sapiens, UniProt P03956) | 6.52 |
| C[C@H](NS(=O)(=O)c1ccccc1)C(=O)NC1=NN=C(c2ccc(Cl)s2)CS1 | Interstitial collagenase (Homo sapiens, UniProt P03956) | 6.35 |
| C[C@H](NS(=O)(=O)Cc1ccccc1)C(=O)NC1=NN=C(c2ccc(Cl)cc2)CS1 | Interstitial collagenase (Homo sapiens, UniProt P03956) | 6.44 |
| C[C@H](NS(=O)(=O)c1ccccc1)C(=O)NC1=NN=C(c2ccc(C#N)cc2)CS1 | Interstitial collagenase (Homo sapiens, UniProt P03956) | 6.41 |
| CC(C)[C@@H](NS(=O)(=O)c1ccccc1)C(=O)NC1=NN=C(c2ccc(Cl)cc2)CS1 | Interstitial collagenase (Homo sapiens, UniProt P03956) | 6.26 |

* * *

target: Matrix metalloproteinase-14 (Homo sapiens); test: In vitro inhibitory activity against the ectodomain of the human matrix metalloprotease-14
Ki values for the compounds below.
OUTCOME MEASURE: Ki (nM)

| LINE NOTATION | OUTCOME MEASURE | VALUE OBSERVED |
| --- | --- | --- |
| C[C@@H](NS(=O)(=O)c1ccccc1)C(=O)NC1=NN=C(c2ccc(Cl)cc2)CS1 | Ki | 210 |
| C[C@H](NS(=O)(=O)c1ccccc1)C(=O)NC1=NN=C(c2ccc(Cl)s2)CS1 | Ki | 200 |
| C[C@@H](NS(=O)(=O)c1ccccc1)C(=O)NC1=NN=C(c2ccc(C#N)cc2)CS1 | Ki | 400 |
| Cc1ccc(C2=NN=C(NC(=O)[C@@H](C)NS(=O)(=O)c3ccccc3)SC2)cc1 | Ki | 150 |
| C[C@H](NS(=O)(=O)Cc1ccccc1)C(=O)NC1=NN=C(c2ccc(Cl)cc2)CS1 | Ki | 180 |
| CC(C)[C@@H](NS(=O)(=O)c1ccccc1)C(=O)NC1=NN=C(c2ccc(Cl)cc2)CS1 | Ki | 330 |
| C[C@@H](NS(=O)(=O)c1ccccc1)C(=O)NC1=NN=C(c2ccc(F)cc2)CS1 | Ki | 330 |
| C[C@@H](NS(=O)(=O)c1ccccc1)C(=O)NC1=NN=C(c2ccc(Br)cc2)CS1 | Ki | 180 |
| CC(C)(NS(=O)(=O)c1ccccc1)C(=O)NC1=NN=C(c2ccc(Cl)cc2)CS1 | Ki | 110 |

* * *

target: Collagenase 3 (Homo sapiens)
pKi: −log10 of the molar value.
Lab note: compare pKi against 6. Equal or greater, write 1.0. Smaller, write 0.0.

| LINE NOTATION | GROUP |
| --- | --- |
| CC(C)(NS(=O)(=O)c1ccccc1)C(=O)NC1=NN=C(c2ccc(Cl)cc2)CS1 | 1.0 |
| C[C@H](NS(=O)(=O)Cc1ccccc1)C(=O)NC1=NN=C(c2ccc(Cl)cc2)CS1 | 1.0 |
| C[C@@H](NS(=O)(=O)c1ccccc1)C(=O)NC1=NN=C(c2ccc(C#N)cc2)CS1 | 1.0 |
| C[C@H](NS(=O)(=O)c1ccccc1)C(=O)NC1=NN=C(c2ccc(Br)cc2)CS1 | 1.0 |
| C[C@H](NS(=O)(=O)c1cccs1)C(=O)NC1=NN=C(c2ccc(Cl)cc2)CS1 | 0.0 |
| C[C@H](NS(=O)(=O)c1ccccc1)C(=O)NC1=NN=C(c2ccc(F)cc2)CS1 | 1.0 |
| CC(C)[C@H](NS(=O)(=O)c1ccccc1)C(=O)NC1=NN=C(c2ccc(Cl)cc2)CS1 | 0.0 |
| C[C@@H](NS(=O)(=O)c1ccccc1)C(=O)NC1=NN=C(c2ccc(Cl)cc2)CS1 | 1.0 |
| CC(C)[C@@H](NS(=O)(=O)c1ccccc1)C(=O)NC1=NN=C(c2ccc(Cl)cc2)CS1 | 0.0 |
| C[C@H](NS(=O)(=O)c1ccccc1)C(=O)NC1=NN=C(C23CC4CC(CC(C4)C2)C3)CS1 | 0.0 |

* * *

Ki values for the molecules below.
target: Collagenase 3 (Homo sapiens, UniProt P45452)
OUTCOME MEASURE: Ki (nM)

| LINE NOTATION | EXPERIMENTAL TARGET | OUTCOME MEASURE | VALUE OBSERVED |
| --- | --- | --- | --- |
| C[C@H](NS(=O)(=O)c1ccccc1)C(=O)NC1=NN=C(c2ccc(C#N)cc2)CS1 | Collagenase 3 (Homo sapiens, UniProt P45452) | Ki | 250 |
| Cc1ccc(C2=NN=C(NC(=O)[C@H](C)NS(=O)(=O)c3ccccc3)SC2)cc1 | Collagenase 3 (Homo sapiens, UniProt P45452) | Ki | 620 |
| C[C@@H](NS(=O)(=O)c1ccccc1)C(=O)NC1=NN=C(c2ccc(F)cc2)CS1 | Collagenase 3 (Homo sapiens, UniProt P45452) | Ki | 300 |
| Cc1ccc(C2=NN=C(NC(=O)[C@@H](C)NS(=O)(=O)c3ccccc3)SC2)cc1 | Collagenase 3 (Homo sapiens, UniProt P45452) | Ki | 320 |
| C[C@H](NS(=O)(=O)c1ccccc1)C(=O)NC1=NN=C(c2ccc(Cl)s2)CS1 | Collagenase 3 (Homo sapiens, UniProt P45452) | Ki | 470 |
| C[C@H](NS(=O)(=O)c1ccccc1)C(=O)NC1=NN=C(c2ccc(Cl)cc2)CS1 | Collagenase 3 (Homo sapiens, UniProt P45452) | Ki | 180 |
| C[C@H](NS(=O)(=O)c1ccccc1)C(=O)NC1=NN=C(c2ccc([N+](=O)[O-])cc2)CS1 | Collagenase 3 (Homo sapiens, UniProt P45452) | Ki | 260 |
| C[C@@H](NS(=O)(=O)c1ccccc1)C(=O)NC1=NN=C(c2ccc(Br)cc2)CS1 | Collagenase 3 (Homo sapiens, UniProt P45452) | Ki | 130 |
| C[C@H](NS(=O)(=O)c1ccccc1)C(=O)NC1=NN=C(c2ccc(C(F)(F)F)cc2)CS1 | Collagenase 3 (Homo sapiens, UniProt P45452) | Ki | 570 |

* * *

pKi values for the compounds below.
biological target: Matrix metalloproteinase-14 (Homo sapiens); experiment: In vitro inhibitory activity against the ectodomain of the human matrix metalloprotease-14
pKi: −log10 of the molar value.
OUTCOME MEASURE: pKi

| LINE NOTATION | EXPERIMENTAL TARGET | OUTCOME MEASURE | VALUE OBSERVED |
| --- | --- | --- | --- |
| C[C@H](NS(=O)(=O)c1ccccc1)C(=O)NC1=NN=C(c2ccc(Cl)cc2)CS1 | Matrix metalloproteinase-14 (Homo sapiens) | pKi | 6.68 |
| C[C@H](NS(=O)(=O)c1ccccc1)C(=O)NC1=NN=C(c2ccc(C#N)cc2)CS1 | Matrix metalloproteinase-14 (Homo sapiens) | pKi | 6.40 |
| C[C@H](NS(=O)(=O)c1ccccc1)C(=O)NC1=NN=C(c2ccc(C(F)(F)F)cc2)CS1 | Matrix metalloproteinase-14 (Homo sapiens) | pKi | 6.41 |
